testedSystem: T1, recombinant human PVRIG-human IgG1 Fc fusion protein (human)
T1 construct: no linker is told; also called human PVRIG-Fc fusion protein
T1 sequence (chain, as listed by the source limits assumed): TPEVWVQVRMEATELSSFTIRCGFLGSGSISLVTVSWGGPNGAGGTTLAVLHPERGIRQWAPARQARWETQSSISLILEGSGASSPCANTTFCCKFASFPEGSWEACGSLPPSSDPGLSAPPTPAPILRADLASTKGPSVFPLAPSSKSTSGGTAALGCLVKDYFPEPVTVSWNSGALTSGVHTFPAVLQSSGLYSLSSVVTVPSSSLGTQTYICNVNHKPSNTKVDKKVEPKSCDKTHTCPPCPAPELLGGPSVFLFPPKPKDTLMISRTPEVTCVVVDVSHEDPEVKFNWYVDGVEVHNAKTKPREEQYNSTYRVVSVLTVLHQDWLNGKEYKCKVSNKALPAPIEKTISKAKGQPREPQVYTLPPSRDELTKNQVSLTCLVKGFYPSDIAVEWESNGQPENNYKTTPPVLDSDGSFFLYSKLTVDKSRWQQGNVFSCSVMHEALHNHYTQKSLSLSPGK
assayNotes: SPR (Biacore), human PVRIG-human IgG1 Fc on chip, antibody in flow, 1:1 model
testReadout: kon (M⁻¹ s⁻¹)
Reply with just the number (in M⁻¹ s⁻¹).

Q: Quote kon reported for Antibody 4-hu10 (antibody, human IgG4 S228P, kappa, V domains shown, Humanized Antibody 4; heavy chain IgG4 with S228P already in the entry) VH: EVQLVQSGAEVKKPGSSVKVSCKASGYTFSSFSIEWVRQAPGQGLEWIGEILPGSNSTNYNEKFKGRVTFTADTSTNTAYMELSSLRSEDTAVYYCSSYWFAYWGQGTLVTVSS VL: DIVMTQSPDSLAVSLGERATINCKSSQSLLNSGNQKNYLAWYQQKPGQPPKLLIYGASTRESGVPDRFSGSGSGTDFTLTISSLQAEDVAVYYCQNAHSYPPTFGQGTKLEIKR please.
Result: 250000

Q: Respond only with kon recorded for Antibody 4-hu5 (antibody, human IgG4 S228P, kappa, V domains shown, Humanized Antibody 4; heavy chain IgG4 with S228P already in the entry) VH: EVQLVQSGAEVKKPGSSVKVSCKASGGTFSSFSIEWVRQAPGQGLEWIGEILPGSNSTNYNEKFKGRVTFTADTSTNTAYMELSSLRSEDTAVYYCSSYWFAYWGQGTLVTVSS VL: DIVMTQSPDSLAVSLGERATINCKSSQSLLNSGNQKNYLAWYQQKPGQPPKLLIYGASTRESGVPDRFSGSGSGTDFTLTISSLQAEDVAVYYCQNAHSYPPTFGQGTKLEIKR
Result: 236000

Q: Give kon for the following binder: Antibody 4-hu2 (antibody, human IgG4 S228P, kappa, V domains shown, Humanized Antibody 4; heavy chain IgG4 with S228P already in the entry) VH: EVQLVQSGAEVKKPGSSVKVSCKASGGTFSSFSIEWVRQAPGQGLEWMGEILPGSNSTNYNEKFKGRVTITADESTSTAYMELSSLRSEDTAVYYCSSYWFAYWGQGTLVTVSS VL: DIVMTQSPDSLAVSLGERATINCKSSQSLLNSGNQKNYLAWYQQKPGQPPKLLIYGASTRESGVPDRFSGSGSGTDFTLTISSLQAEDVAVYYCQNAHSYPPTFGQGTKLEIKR
Result: 266000

Ref: patent US20230227572A1
